Measured values drawn from patent US10513538B2 for this set.

Assignment: determine reported IC50 for the given compounds.
system_name: DPPIV (Human, recombinant) (Homo sapiens, UniProt P27487)
Sequence (P27487 whole entry): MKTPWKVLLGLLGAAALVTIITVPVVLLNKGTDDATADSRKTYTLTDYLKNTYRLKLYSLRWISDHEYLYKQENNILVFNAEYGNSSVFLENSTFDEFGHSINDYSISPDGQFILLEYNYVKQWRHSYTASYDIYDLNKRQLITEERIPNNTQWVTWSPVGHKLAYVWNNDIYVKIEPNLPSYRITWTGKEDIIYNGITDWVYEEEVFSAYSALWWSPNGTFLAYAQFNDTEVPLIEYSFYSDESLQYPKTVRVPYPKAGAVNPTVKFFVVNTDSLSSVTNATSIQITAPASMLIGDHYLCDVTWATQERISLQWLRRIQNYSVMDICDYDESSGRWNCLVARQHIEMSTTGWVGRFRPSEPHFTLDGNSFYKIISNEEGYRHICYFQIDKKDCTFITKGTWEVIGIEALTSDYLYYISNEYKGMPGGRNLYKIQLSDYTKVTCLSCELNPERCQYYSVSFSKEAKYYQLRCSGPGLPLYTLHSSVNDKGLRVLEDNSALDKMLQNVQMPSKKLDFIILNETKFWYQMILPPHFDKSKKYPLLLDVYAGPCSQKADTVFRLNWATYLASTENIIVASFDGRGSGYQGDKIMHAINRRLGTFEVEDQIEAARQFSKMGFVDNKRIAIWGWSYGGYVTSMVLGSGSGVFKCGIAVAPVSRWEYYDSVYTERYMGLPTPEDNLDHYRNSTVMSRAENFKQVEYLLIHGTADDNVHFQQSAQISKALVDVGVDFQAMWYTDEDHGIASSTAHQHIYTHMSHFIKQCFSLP
test: DPPIV inhibitory activity measurement with partly modified DPPIV Drug Discovery Assay Kit (AMC substrate)
measurement_parameters: synthesized peptide, serially diluted
Residues, ends and D or L forms follow the SMILES beside them.

Would you please look over these solved cases?
[[record]]
compound = "CC(C)[C@H](NC(=O)[C@@H]1CCCN1C(=O)[C@@H](N)Cc1ccccc1)C(=O)NCC(=O)O [FPVG, Phe-Pro-Val-Gly] (H-FPVG-OH; N-terminus and C-terminus assumed)"
observed_property = "IC50"
result = "40 µM"

[[record]]
compound = "N[C@@H](Cc1ccccc1)C(=O)N1CCC[C@H]1C(=O)O [FP, Phe-Pro] (H-Phe-Pro-OH)"
observed_property = "IC50"
result = "> 100 µM"

[[record]]
compound = "CC[C@H](C)[C@H](N)C(=O)N1CCC[C@H]1C(=O)O [IP, Ile-Pro] (H-Ile-Pro-OH; N-terminus and C-terminus assumed)"
observed_property = "IC50"
result = "66 µM"

[[record]]
compound = "CC(C)C[C@H](N)C(=O)N1CCC[C@H]1C(=O)O [LP, Leu -Pro] (H-Leu-Pro-OH)"
observed_property = "IC50"
result = "> 100 µM"


## Input Query (compound): CC(C)C[C@H](NC(=O)[C@@H](NC(=O)[C@@H]1CCCN1C(=O)[C@@H](N)CC(C)C)C(C)C)C(=O)O [LPVL, Leu-Pro-Val-Leu] (H-LPVL-OH; N-terminus and C-terminus assumed) ; field requested: IC50
## Output 46 µM
